Hello, the source for this data is patent US6355799B1, in case you need it.

# Test system: upland rice (Oryza sp., var. Tebonnet, RICE)
# protocol: Post-emerge test, crop safety
# Type: in vivo
# experimental-conditions: post-emerge, 63 g ai/ha, 14 days after application, rating scale 0-100
Provide the recorded phytotoxicity rating RICE for the entries that follow.
Answers are plain numbers.

Cn1c(C(F)(F)F)cc(=O)n(-c2c(F)cc(Cl)c(O)c2NC(=O)c2ncccn2)c1=O : 0
COc1c(Cl)cc(F)c(-n2c(=O)cc(C(F)(F)F)n(C)c2=O)c1NC(=O)c1ccc2c(c1)OCO2 : 20
COc1c(Cl)cc(F)c(-n2c(=O)cc(C(F)(F)F)n(C)c2=O)c1N(C(=O)c1ccc(F)c(F)c1)C(=O)c1ccc(F)c(F)c1 : 0
COc1c(Cl)cc(F)c(-n2c(=O)cc(C(F)(F)F)n(C)c2=O)c1NC(=O)C(=O)c1ccccc1 : 15
COc1c(Cl)cc(F)c(-n2c(=O)cc(C(F)(F)F)n(C)c2=O)c1NC(=O)c1ccc(OC(F)(F)F)cc1 : 0

Turning to the following compound.
## Input Query for upland rice (Oryza sp., var. Tebonnet, RICE): what phytotoxicity rating RICE does the record show for "COc1c(Cl)cc(F)c(-n2c(=O)cc(C(F)(F)F)n(C)c2=O)c1NC(=O)C=Cc1ccccc1Cl" ?
## Output 50

====

# Test system: field corn (Zea mays L., var. Dekalb 535, CORN)
# protocol: Pre-emerge test, crop safety
# Assay type: in vivo
# experimental-conditions: pre-emerge, 250 g ai/ha, 14 days after application, rating scale 0-100
recorded-metric: phytotoxicity rating CORN
One number for each entry.

COc1c(Cl)cc(F)c(-n2c(=O)cc(C(F)(F)F)n(C)c2=O)c1SC(C)C : 0
CCOC(=O)C(Cl)Cc1c(OC)c(Cl)cc(F)c1-c1nn(C)c(C(F)(F)F)c1Cl (stereo not shown) : 0
COc1c(Cl)cc(F)c(-n2c(=O)cc(C(F)(F)F)n(C)c2=O)c1NN=C1CCc2ccccc2C1 : 95

// switching to the query compound
## Input Which value of phytotoxicity rating CORN has been reported for "Cn1c(C(F)(F)F)cc(=O)n(-c2ccc(Cl)cc2C(=O)c2ccccc2)c1=O" in the records?
## Output 0

====

Assign Pre-emerge Herbicidal Activity CORN to each entry below.
# System: field corn (Zea mays L., var. Dekalb 535, CORN)
# protocol: Pre-emerge test, crop safety
# Format: in vivo
# experimental-conditions: 250 g ai/ha; crop damage rating 0-100, 14 days after application

See these solved cases before continuing.
N#CCOc1c(Cl)cc(F)c(-n2c(=O)cc(C(F)(F)F)n(N)c2=O)c1NC(=O)c1ccc2ccccc2c1 : 0
Cn1c(C(F)(F)F)cc(=O)n(-c2c(F)cc(Cl)c(OCC#N)c2NC(=O)c2ccc3ccccc3c2)c1=O : 100
COc1c(Cl)cc(F)c(-n2c(=O)cc(C(F)(F)F)n(C)c2=O)c1NC(=O)OCc1c(F)c(F)c(F)c(F)c1F : 50
COc1c(Cl)cc(F)c(-n2c(=O)cc(C(F)(F)F)n(C)c2=O)c1NC(=O)NCc1ccccc1 : 90
Cn1c(C(F)(F)F)cc(=O)n(-c2ccc(Cl)cc2NC(=O)C2CC2)c1=O : 70
CC(C)Oc1c(Cl)cc(F)c(-n2c(=O)cc(C(F)(F)F)n(C)c2=O)c1NC(=O)c1ccc2ccccc2c1 : 0

Field: next molecule
## Input Would you mind telling me what Pre-emerge Herbicidal Activity CORN value was observed for "COc1c(Cl)cc(F)c(-n2c(=O)cc(C(F)(F)F)n(C)c2=O)c1NC(=O)OCc1ccccn1" ?
## Output 100

====

Assignment: determine reported pest or weed control at 250 g/ha for the given molecules.
# Test system: barnyardgrass (Echinochloa crus-galli, ECHCG)
# protocol: Pre-emerge test, greenhouse herbicide activity screening
# Format: in vivo
# experimental-conditions: Echinochloa crus-galli, pre-emergence, 336 h; pre-emerge, rate 250 g ai/ha, phytotoxicity rating 0-100 at 14 days after application; read-out: Pre-emerge Herbicidal Activity ECHCG
Answers are plain numbers, in %.

Sample answers from the record:
COc1c(Cl)cc(F)c(-c2nn(C)c(C(F)(F)F)c2Cl)c1NC(=O)c1ccc2ccccc2c1 [Compound 7-14] : 40
Cc1nn(-c2c(Cl)cc(Cl)cc2NC(=O)c2ccc3ccccc3c2)c(=O)n1C(F)F [Compound 6-16] : 30
COc1c(Cl)cc(F)c(-n2nc(C)n(C(F)F)c2=O)c1NC(=O)c1ccc2ccccc2c1 [Compound 6-15] : 80

// next item, pest or weed control at 250 g/ha requested
## Input Recorded pest or weed control at 250 g/ha for COc1c(Cl)cc(Cl)c(-n2nc(C)n(C(F)F)c2=O)c1NC(=O)c1ccc2ccccc2c1 [Compound 6-17] with barnyardgrass (Echinochloa crus-galli, ECHCG), please?
## Output 90

====

# Tested on: johnsongrass (Sorghum halepense, SORHA)
# protocol: Post-emerge test, greenhouse herbicide activity screening
# Type: in vivo
# experimental-conditions: post-emerge, 63 g ai/ha, 14 days after application, rating scale 0-100
recorded-metric: phytotoxicity rating SORHA
Answers are plain numbers.

Please report phytotoxicity rating SORHA for every entry that follows.
1. COc1c(Cl)cc(F)c(-n2c(=O)cc(C(F)(F)F)n(C)c2=O)c1N(C(=O)c1ccc(C(F)(F)F)cc1)C(=O)c1ccc(C(F)(F)F)cc1
2. COc1c(Cl)cc(F)c(-n2c(=O)cc(C(F)(F)F)n(C)c2=O)c1NC(=O)c1cnc2ccccc2n1
3. COc1c(Cl)cc(F)c(-n2c(=O)cc(C(F)(F)F)n(C)c2=O)c1NC(=O)C(C)=Cc1ccccc1
4. COC(=O)N(C(=O)OC)c1c(OC)c(Cl)cc(F)c1-n1c(=O)cc(C(F)(F)F)n(C)c1=O
5. Cc1c(Cl)cc(F)c(-n2c(=O)cc(C(F)(F)F)n(C)c2=O)c1NC(=O)C=Cc1ccccc1
6. COc1c(Cl)cc(F)c(-n2c(=O)cc(C(F)(F)F)n(C)c2=O)c1NC(=O)c1cc([N+](=O)[O-])cc([N+](=O)[O-])c1

## Output
1: 40; 2: 0; 3: 20; 4: 0; 5: 10; 6: 0

Hi! Can you tell me phytotoxicity rating SORHA for each of these molecules?
1. COc1c(Cl)cc(F)c(-n2c(=O)cc(C(F)(F)F)n(C)c2=O)c1NC(=O)OCc1ccccc1[N+](=O)[O-]
2. Cn1c(C(F)(F)F)cc(=O)n(-c2c(F)cc(Cl)c(OCC#N)c2N(C(=O)c2ccc(F)cc2F)C(=O)c2ccc(F)cc2F)c1=O
3. COc1c(Cl)cc(F)c(-n2c(=O)cc(C(F)(F)F)n(C)c2=O)c1NC(=O)NCc1ccccc1
4. Cc1ccccc1COC(=O)Nc1c(C)c(Cl)cc(F)c1-n1c(=O)cc(C(F)(F)F)n(C)c1=O
5. COc1c(Cl)cc(F)c(-n2c(=O)cc(C(F)(F)F)n(C)c2=O)c1NC(=O)C=Cc1ccccc1
6. COc1c(Cl)cc(F)c(-n2c(=O)cc(C(F)(F)F)n(C)c2=O)c1N(C(=O)c1ccc([N+](=O)[O-])cc1)C(=O)c1ccc([N+](=O)[O-])cc1
7. Cn1c(C(F)(F)F)cc(=O)n(-c2c(F)cc(Cl)c(OCC#N)c2NC(=O)OCc2ccccc2)c1=O

## Output
[30, 0, 0, 40, 0, 0, 10]

Below are 6 molecules. Give each one its phytotoxicity rating SORHA.
1. COc1c(Cl)cc(F)c(-n2c(=O)cc(C(F)(F)F)n(C)c2=O)c1NC(=O)c1c(F)c(F)c(F)c(F)c1F
2. COc1c(Cl)cc(F)c(-n2c(=O)cc(C(F)(F)F)n(C)c2=O)c1NC(=O)OCc1ccc(F)c(F)c1
3. COc1c(Cl)cc(F)c(-n2c(=O)cc(C(F)(F)F)n(C)c2=O)c1NC(=O)OCc1ccccn1
4. COc1c(Cl)cc(F)c(-n2c(=O)cc(C(F)(F)F)n(C)c2=O)c1NC(=O)c1ccc(OC(F)(F)F)cc1
5. COc1c(Cl)cc(F)c(-n2c(=O)cc(C(F)(F)F)n(N)c2=O)c1NC(=O)c1ccc(F)cc1F
6. COc1c(Cl)cc(F)c(-n2c(=O)cc(C(F)(F)F)n(C)c2=O)c1NC(=O)c1ccccc1Cl

## Output
1. 0
2. 50
3. 10
4. 0
5. 0
6. 0

Hello, I would appreciate it if you could give phytotoxicity rating SORHA for each entry below.
1. COc1c(Cl)cc(F)c(-n2c(=O)cc(C(F)(F)F)n(C)c2=O)c1NC(N)=O
2. COc1c(Cl)cc(F)c(-n2c(=O)cc(C(F)(F)F)n(C)c2=O)c1NC(=O)OCc1ccc(F)cc1
3. COc1c(Cl)cc(F)c(-n2c(=O)cc(C(F)(F)F)n(C)c2=O)c1N(C(=O)C=Cc1ccccc1Cl)C(=O)C=Cc1ccccc1Cl
4. COc1c(Cl)cc(F)c(-n2c(=S)cc(C(F)(F)F)n(C)c2=O)c1NC(=S)c1ccc(F)cc1F
5. COc1c(Cl)cc(F)c(-n2c(=O)cc(C(F)(F)F)n(C)c2=O)c1NC(=O)c1ccc(Cl)cc1Cl

## Output
0
90
0
0
20

## Input Return reported phytotoxicity rating SORHA; argument: "COc1c(Cl)cc(F)c(-n2c(=O)cc(C(F)(F)F)n(C)c2=O)c1NC(=O)c1ccc(F)c(F)c1"
## Output 30
